Reference for the values: ChEMBL document CHEMBL3228010

- assay summary: Displacement of ethidium from poly[d(A-T)]-poly[d(A-T)] DNA by fluorimetric method
quantity measured: C50 (µM)
// return numeric value only (unit: µM, not printed)

Query string: Look up C50: `C(=C\c1ccc(-[n+]2ccccc2)cc1)/c1ccc(/C=C/c2ccc(-[n+]3ccccc3)cc2)cc1.Cc1ccc(S(=O)(=O)[O-])cc1.Cc1ccc(S(=O)(=O)[O-])cc1`
Result string: 0.2

Query string: Look up C50: `CC[n+]1ccc(Nc2ccc(NC(=O)c3ccc(Nc4cc[n+](CC)c5ccccc45)cc3)cc2)cc1.[Br-].[Br-]`
Result string: 0.19

Query string: Look up C50: `COc1cc(NC(=O)c2ccc(C(=O)Nc3ccc(C(=O)Nc4ccc[n+](C)c4)c(OC)c3)cc2)ccc1C(=O)Nc1ccc[n+](C)c1.Cc1ccc(S(=O)(=O)[O-])cc1.Cc1ccc(S(=O)(=O)[O-])cc1`
Result string: 0.3

Query string: Look up C50: `CCC[n+]1ccccc1-c1ccc(NC(=O)c2ccc(C(=O)Nc3ccc(-c4cccc[n+]4CCC)cc3)cc2)cc1.Cc1ccc(S(=O)(=O)[O-])cc1.Cc1ccc(S(=O)(=O)[O-])cc1`
Result string: 0.83

Query string: Look up C50: `CC[n+]1ccc(Nc2ccc(NC(=O)c3ccc(Nc4cc[n+](CC)c5ccc(N)cc45)cc3)cc2)cc1.[Br-].[Br-]`
Result string: 0.1

Query string: Look up C50: `C[n+]1ccc(Nc2ccc(NC(=O)c3ccc(Nc4cc[n+](C)c5ccc(N)cc45)cc3)cc2)cc1.[Br-].[Br-]`
Result string: 0.09

---

- assay summary: Displacement of ethidium from poly[d(A)]-poly[d(T)] DNA (unknown origin) by fluorimetric method
Label fulfilled when C50 is at or above 0.06 µM; otherwise label not fulfilled.

Query string: Item `C[n+]1ccc(Nc2ccc(NC(=O)c3ccc(Nc4cc[n+](C)c5c(N)cccc45)cc3)cc2)cc1.[I-].[I-]` with C50 of 0.06 µM or above?
Result string: not fulfilled

Query string: Item `CCC[n+]1cccc(NC(=O)c2ccc(NC(=O)c3ccc(C(=O)Nc4ccc(C(=O)Nc5ccc[n+](CCC)c5)cc4)cc3)cc2)c1.Cc1ccc(S(=O)(=O)[O-])cc1.Cc1ccc(S(=O)(=O)[O-])cc1` with C50 of 0.06 µM or above?
Result string: fulfilled

Query string: Item `CCCC[n+]1cccc(NC(=O)c2ccc(NC(=O)c3ccc(C(=O)Nc4ccc(C(=O)Nc5ccc[n+](CCCC)c5)cc4)cc3)cc2)c1.Cc1ccc(S(=O)(=O)[O-])cc1.Cc1ccc(S(=O)(=O)[O-])cc1` with C50 of 0.06 µM or above?
Result string: fulfilled

Query string: Item `Cc1cc(C(=O)Nc2ccc[n+](C)c2)ccc1NC(=O)c1ccc(C(=O)Nc2ccc(C(=O)Nc3ccc[n+](C)c3)cc2C)cc1.Cc1ccc(S(=O)(=O)[O-])cc1.Cc1ccc(S(=O)(=O)[O-])cc1` with C50 of 0.06 µM or above?
Result string: fulfilled

Query string: Item `C[n+]1ccc(Nc2ccc(NC(=O)c3ccc(Nc4cc[n+](C)c5ccc(N)cc45)cc3)cc2)cc1.[Br-].[Br-]` with C50 of 0.06 µM or above?
Result string: not fulfilled

Query string: Item `C[n+]1ccc(Nc2ccc(NC(=O)c3ccc(Nc4cc[n+](C)c5ccccc45)cc3N)cc2N)cc1.[I-].[I-]` with C50 of 0.06 µM or above?
Result string: fulfilled

Query string: Item `C[n+]1cccc(-c2ccc(NC(=O)c3ccc(C(=O)Nc4ccc(-c5ccc(-c6ccc(-c7ccc[n+](C)c7)cc6)cc5)cc4)cc3)cc2)c1.Cc1ccc(S(=O)(=O)[O-])cc1.Cc1ccc(S(=O)(=O)[O-])cc1` with C50 of 0.06 µM or above?
Result string: fulfilled

Query string: Item `C[n+]1ccc(Nc2ccc(NC(=O)c3ccc(Nc4cc[n+](C)c5ccccc45)cc3)cc2)cc1.[Br-].[Br-]` with C50 of 0.06 µM or above?
Result string: not fulfilled

Query string: Item `C[n+]1cccc(NC(=O)c2ccc(NC(=O)c3ccc(C(=O)Nc4ccc[n+](C)c4)cc3)cc2)c1.Cc1ccc(S(=O)(=O)[O-])cc1.Cc1ccc(S(=O)(=O)[O-])cc1` with C50 of 0.06 µM or above?
Result string: fulfilled

Query string: Item `C[n+]1cccc(NC(=O)c2ccc(NC(=O)C34CCC(C(=O)Nc5ccc(C(=O)Nc6ccc[n+](C)c6)cc5)(CC3)CC4)cc2)c1.Cc1ccc(S(=O)(=O)[O-])cc1.Cc1ccc(S(=O)(=O)[O-])cc1` with C50 of 0.06 µM or above?
Result string: fulfilled

Query string: Item `CC[n+]1ccc(Nc2ccc(NC(=O)c3ccc(Nc4cc[n+](CC)c5cc(N)ccc45)cc3N)cc2)cc1.[Br-].[Br-]` with C50 of 0.06 µM or above?
Result string: not fulfilled

Query string: Item `C[n+]1ccc(Nc2ccc(NC(=O)c3ccc(Nc4cc[n+](C)c5ccc(N)cc45)cc3)cc2N)cc1.[I-].[I-]` with C50 of 0.06 µM or above?
Result string: fulfilled

Query string: Item `C[n+]1cccc(NC(=O)c2ccc(C(=O)Nc3ccc[n+](C)c3)cc2)c1.Cc1ccc(S(=O)(=O)[O-])cc1.Cc1ccc(S(=O)(=O)[O-])cc1` with C50 of 0.06 µM or above?
Result string: fulfilled

Query string: Item `C[n+]1cccc(NC(=O)c2ccc(NC(=O)c3ccc(C(=O)Nc4ccc(C(=O)Nc5ccc[n+](C)c5)cc4)cc3)cc2)c1` with C50 of 0.06 µM or above?
Result string: fulfilled

Query string: Item `C[n+]1ccc(Nc2ccc(NC(=O)c3ccc(Nc4cc[n+](C)c5c(Cl)cccc45)cc3)cc2)cc1.Cc1ccc(S(=O)(=O)[O-])cc1.Cc1ccc(S(=O)(=O)[O-])cc1` with C50 of 0.06 µM or above?
Result string: not fulfilled

Query string: Item `C[n+]1ccc(Nc2ccc(NC(=O)c3ccc(Nc4cc[n+](C)c5ccccc45)cc3)cc2N)cc1.[I-].[I-]` with C50 of 0.06 µM or above?
Result string: not fulfilled

Query string: Item `C[n+]1ccccc1Nc1ccc(NC(=O)c2ccc(C(=O)Nc3ccc(Nc4cccc[n+]4C)cc3)cc2)cc1.Cc1ccc(S(=O)(=O)[O-])cc1.Cc1ccc(S(=O)(=O)[O-])cc1` with C50 of 0.06 µM or above?
Result string: fulfilled

---

- Tested on: L1210
- assay summary: Antitumor activity against mouse L1210 cells […] in ip dosed C3H X DBA2 F1 hybrid mouse on day 0 and dosed once daily on days 1 to 5 assessed as increase in life span relative to control
- Format: functional
Task for the reader: assign each of the following compounds its reported D40.
The number alone won't do; follow it with the unit.

Query string: Return D40 measured with L1210 given this compound: `C[n+]1ccc(Nc2ccc(NC(=O)/C=C/c3ccc(/C=C/C(=O)Nc4ccc(Nc5cc[n+](C)cc5)cc4)cc3)cc2)cc1.Cc1ccc(S(=O)(=O)[O-])cc1.Cc1ccc(S(=O)(=O)[O-])cc1`
Result string: 5.1 mg/kg

Query string: Return D40 measured with L1210 given this compound: `CC[n+]1ccc(Nc2ccc(C(=O)Nc3ccc(Nc4cc[n+](CC)c5ccccc45)cc3)cc2)cc1.[Br-].[Br-]`
Result string: 0.6 mg/kg

Query string: Return D40 measured with L1210 given this compound: `CCC[n+]1cccc(NC(=O)c2ccc(NC(=O)c3ccc(C(=O)Nc4ccc(C(=O)Nc5ccc[n+](CCC)c5)cc4)cc3)cc2)c1.Cc1ccc(S(=O)(=O)[O-])cc1.Cc1ccc(S(=O)(=O)[O-])cc1`
Result string: 12.9 mg/kg

---

- assay summary: Lipophilic-hydrophilic balance, Rm of the compound by partition chromatography
- Type: physicochemical
Binary label based on Rm with cut-off 0.3: below gives met, not below gives not met.

Query string: Problem: For the molecule `CC[n+]1cccc(NC(=O)c2ccc(NC(=O)C34CCC(C(=O)Nc5ccc(C(=O)Nc6ccc[n+](CC)c6)cc5)(CC3)CC4)cc2)c1.Cc1ccc(S(=O)(=O)[O-])cc1.Cc1ccc(S(=O)(=O)[O-])cc1` , is Rm under 0.3?
Result string: not met

Query string: Problem: For the molecule `CC[n+]1cccc(NC(=O)c2ccc(NC(=O)/C=C/c3ccc(C(=O)Nc4ccc(C(=O)Nc5ccc[n+](CC)c5)cc4)cc3)cc2)c1.Cc1ccc(S(=O)(=O)[O-])cc1.Cc1ccc(S(=O)(=O)[O-])cc1` , is Rm under 0.3?
Result string: met

Query string: Problem: For the molecule `C[n+]1ccc(Nc2ccc(/C=C/c3ccc(Nc4cc[n+](C)c5ccc(N)cc45)cc3)cc2)cc1.[Br-].[Br-]` , is Rm under 0.3?
Result string: not met

Query string: Problem: For the molecule `C[n+]1cccc(NC(=O)c2ccc(NC(=O)c3ccc(C(=O)Nc4ccc(C(=O)Nc5ccc[n+](C)c5)cc4)cc3)cc2)c1.Cc1ccc(S(=O)(=O)[O-])cc1.Cc1ccc(S(=O)(=O)[O-])cc1` , is Rm under 0.3?
Result string: met

Query string: Problem: For the molecule `CC(=O)Nc1ccc2c(Nc3ccc(NC(=O)c4ccc(Nc5cc[n+](C)cc5)cc4)cc3)cc[n+](C)c2c1.Cc1ccc(S(=O)(=O)[O-])cc1.Cc1ccc(S(=O)(=O)[O-])cc1` , is Rm under 0.3?
Result string: met
